System Under Test: small-conductance Ca2+-activated K+ channels (SK channels, subtype 2) (Homo sapiens)
Construct: expressed in transfected cells; host or cells: HEK293
Method Summary: whole-cell patch-clamp of ionic current through SK2 channels in HEK293 cells (SC100)
Format: cell-based
Condition Notes: whole-cell patch-clamp, HEK293 cells expressing SK2 channels; concentration that increases the basal current by 100%
Result Type: SC100 (μM)

In [3]: df
Out[3]:
                                    compound                         system_under_test                   result
 0  Cc1csc(-c2cc(S(C)(=O)=O)cc(NC3CCC(F)(F)CC3)n2)n1 [IN11147-036-P1]  small-conductance Ca2+-activated K+ channels (SK channels, subtype 2) (Homo sapiens)  +++ (+++ means <200 nM)
 1  COc1cc(NC2CCC(F)(F)CC2)nc(-n2nc(C)cc2C)c1 [IN11054-038-P1]  small-conductance Ca2+-activated K+ channels (SK channels, subtype 2) (Homo sapiens)        + (+ means >1 uM)
 2  COC(=O)N1CC(Oc2cc(NC3CCC(F)(F)CC3)nc(-c3nccs3)n2)C1  small-conductance Ca2+-activated K+ channels (SK channels, subtype 2) (Homo sapiens)        + (+ means >1 uM)
 3  CC(=O)c1cc(NC2CCC(F)(F)CC2)nc(-n2nc(C)cc2C)n1 [IN10881-040-P1]  small-conductance Ca2+-activated K+ channels (SK channels, subtype 2) (Homo sapiens)        + (+ means >1 uM)
 4  Cc1cc(C)n(-c2nc(N[C@@H]3CCCC[C@H]3F)cc(N3CCOCC3)n2)n1 [IN11146-016-P1]  small-conductance Ca2+-activated K+ channels (SK channels, subtype 2) (Homo sapiens)        + (+ means >1 uM)
 5  CC(=O)N1CCC(O)(c2cc(NC3CCC(F)(F)CC3)nc(-c3nc(C)cs3)c2)CC1  small-conductance Ca2+-activated K+ channels (SK channels, subtype 2) (Homo sapiens)  +++ (+++ means <200 nM)
 6  Cc1cc(C)n(-c2nc(N3CCOCC3)cc(N(O)C3CCC(F)(F)CC3)n2)n1  small-conductance Ca2+-activated K+ channels (SK channels, subtype 2) (Homo sapiens)        + (+ means >1 uM)
 7  CC(=O)N1CC=C(c2cc(NC3CCC(F)(F)CC3)nc(-n3ccc(C4CC4)n3)n2)CC1 [IN11166-038-P1]  small-conductance Ca2+-activated K+ channels (SK channels, subtype 2) (Homo sapiens)  +++ (+++ means <200 nM)
 8  Cc1csc(-c2cc(N3CCOCC3)nc(NC3CCC(F)(F)CC3)n2)n1  small-conductance Ca2+-activated K+ channels (SK channels, subtype 2) (Homo sapiens)        + (+ means >1 uM)
 9  Cc1nccc(-c2cc(N3CCOCC3)cc(NC3CCC(F)(F)CC3)n2)n1 [IN11104-095-P1]  small-conductance Ca2+-activated K+ channels (SK channels, subtype 2) (Homo sapiens)        + (+ means >1 uM)
10  Cc1csc(-c2cc(NC3CCC(F)(F)CC3)cc(C(C)O)c2)n1 (centres unmarked) [IN11104-077-P1]  small-conductance Ca2+-activated K+ channels (SK channels, subtype 2) (Homo sapiens)        + (+ means >1 uM)
11  Cc1csc(-c2cc(-c3nc(C)cs3)nc(NC3CCC(F)(F)CC3)n2)n1  small-conductance Ca2+-activated K+ channels (SK channels, subtype 2) (Homo sapiens)        + (+ means >1 uM)
12  Cc1ccn(-c2nc(NCC3CCOC3)cc(C(C)O)n2)n1 (centres unmarked) [IN10880-058-P1]  small-conductance Ca2+-activated K+ channels (SK channels, subtype 2) (Homo sapiens)        + (+ means >1 uM)
13  Cc1csc(N2C[C@@H](Nc3ccc([N+](=O)[O-])cc3)C[C@H](N3CCOCC3)C2)n1  small-conductance Ca2+-activated K+ channels (SK channels, subtype 2) (Homo sapiens)        + (+ means >1 uM)
14  CC(=O)c1cc(NC2CCC(F)(F)CC2)cc(-c2nc(C)cs2)c1 [IN11104-059-P1]  small-conductance Ca2+-activated K+ channels (SK channels, subtype 2) (Homo sapiens)        + (+ means >1 uM)
15  CSc1cc(NC2CCC(F)(F)CC2)nc(-n2nc(C)cc2C)n1 [IN11067-060-P1]  small-conductance Ca2+-activated K+ channels (SK channels, subtype 2) (Homo sapiens)        + (+ means >1 uM)
16  COCc1cc(NC2CCC(F)(F)CC2)nc(-c2nc(C)co2)n1  small-conductance Ca2+-activated K+ channels (SK channels, subtype 2) (Homo sapiens)        + (+ means >1 uM)
17  Cc1csc(-c2cc(NC(=O)OC(C)(C)C)cc(NC3CCC(F)(F)CC3)n2)n1 [IN11083-048-P1]  small-conductance Ca2+-activated K+ channels (SK channels, subtype 2) (Homo sapiens)  +++ (+++ means <200 nM)
